Each recorded value in this set is attributed to the supplement of paper PMC10567573.

Measured protein stability index, listed per entry.
B1: C22orf15 (parent)
chain: PRGRAHLLPNPYQQDFLGLPEELR

Variants of: B1
ASSAY INFO: protein stability index of a GFP-peptide fusion (GPS, HEK-293T) (PSI 1-6); higher = more stable;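 note: lentivirally expressed fusions sorted by FACS into six bins by GFP to DsRed ratio, PSI derived from sequencing read proportions per bin multiplied by bin number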
PARTICULARS: c terminus: a fixed tail appended
Just the number, please, no unit attached.

{"columns": ["VARIANT", "protein stability index"],
 "data": [
  ["P20T", 3.42],
  ["Q13D", 4.1],
  ["P20W", 2.26],
  ["H6G", 4.26],
  ["L17A", 4.43],
  ["Q14Y", 2.98],
  ["Q13H", 3.74],
  ["A5H", 3.78]
]}

[in] Report protein stability index for P11H
[out] 3.33

[in] Answer with the recorded protein stability index for the variant listed here: Y12G
[out] 4.87

[in] Supply recorded protein stability index for E21K here.
[out] 3.56

[in] Look up and state reported protein stability index for L23A
[out] 4.24

[in] Identify the reported protein stability index for the following entry. P1N
[out] 3.69
